Form field: hEphA10-SEAP-: absorbance at 450 nm, percentage with respect to hEphA4-SEAP-His as 100% (one value per entry).
Target System: T1, human EphA10 (Homo sapiens, UniProt Q5JZY3)
T1 construct: a protein of the extracellular region of each human Eph receptor fused with the SEAP protein and the His tag; made in house; host or cells: Expi293F cells (culture supernatant)
T1 sequence (Q5JZY3 34-565 limits assumed): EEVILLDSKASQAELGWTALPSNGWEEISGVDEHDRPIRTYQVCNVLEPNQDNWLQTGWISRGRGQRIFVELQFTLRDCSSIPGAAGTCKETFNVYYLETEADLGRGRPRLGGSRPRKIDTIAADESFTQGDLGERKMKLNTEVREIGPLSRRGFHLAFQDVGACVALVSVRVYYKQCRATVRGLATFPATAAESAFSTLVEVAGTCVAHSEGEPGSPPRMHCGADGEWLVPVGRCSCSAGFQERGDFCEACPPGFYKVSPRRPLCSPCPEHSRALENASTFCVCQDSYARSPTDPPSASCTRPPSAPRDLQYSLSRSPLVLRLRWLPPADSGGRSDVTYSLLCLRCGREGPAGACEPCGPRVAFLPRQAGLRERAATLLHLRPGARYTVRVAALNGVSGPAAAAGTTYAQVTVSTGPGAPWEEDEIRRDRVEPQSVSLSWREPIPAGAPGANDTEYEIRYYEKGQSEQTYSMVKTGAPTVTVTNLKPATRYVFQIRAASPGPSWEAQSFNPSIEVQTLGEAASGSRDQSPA
Test: Selectivity ELISA of humanized antibodies for human Eph receptor
Format: binding
Test Parameters: coated protein 1 nM
Supply the numeric figure in %, leaving out any unit text.

Some molecules with known hEphA10-SEAP-: absorbance at 450 nm, percentage with respect to hEphA4-SEAP-His as 100% results, for comparison:
136 (antibody, V domains shown, synthetic humanized antibody heavy chain variable region sequence; synthetic humanized antibody light chain variable region sequence) VH: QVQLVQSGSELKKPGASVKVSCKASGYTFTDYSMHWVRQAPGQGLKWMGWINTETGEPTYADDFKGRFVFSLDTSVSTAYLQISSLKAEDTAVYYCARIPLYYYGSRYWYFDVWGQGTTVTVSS VL: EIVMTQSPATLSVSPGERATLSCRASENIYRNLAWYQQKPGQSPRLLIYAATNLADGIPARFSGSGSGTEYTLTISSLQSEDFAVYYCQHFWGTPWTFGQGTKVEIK :: 5.2
145 (antibody, V domains shown, synthetic humanized antibody heavy chain variable region sequence; synthetic humanized antibody light chain variable region sequence) VH: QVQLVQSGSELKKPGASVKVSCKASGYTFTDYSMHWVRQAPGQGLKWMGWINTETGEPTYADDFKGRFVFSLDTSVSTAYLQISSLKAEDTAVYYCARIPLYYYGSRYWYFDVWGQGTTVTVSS VL: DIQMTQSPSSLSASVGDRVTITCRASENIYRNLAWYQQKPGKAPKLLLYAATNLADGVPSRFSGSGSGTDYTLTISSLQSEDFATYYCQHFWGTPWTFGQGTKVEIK :: 6.5
132 (antibody, V domains shown, synthetic humanized antibody heavy chain variable region sequence; synthetic humanized antibody light chain variable region sequence) VH: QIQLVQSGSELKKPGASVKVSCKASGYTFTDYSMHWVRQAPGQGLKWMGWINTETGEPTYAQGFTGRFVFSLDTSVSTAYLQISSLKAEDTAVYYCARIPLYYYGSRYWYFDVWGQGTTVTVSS VL: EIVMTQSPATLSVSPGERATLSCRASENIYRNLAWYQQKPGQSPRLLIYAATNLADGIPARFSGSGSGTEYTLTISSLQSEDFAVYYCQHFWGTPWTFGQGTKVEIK :: 4.7

--- query ---
Data request, read-out hEphA10-SEAP-: absorbance at 450 nm, percentage with respect to hEphA4-SEAP-His as 100%, for 73 (antibody, V domains shown, synthetic humanized antibody heavy chain variable region sequence; synthetic humanized antibody light chain variable region sequence) VH: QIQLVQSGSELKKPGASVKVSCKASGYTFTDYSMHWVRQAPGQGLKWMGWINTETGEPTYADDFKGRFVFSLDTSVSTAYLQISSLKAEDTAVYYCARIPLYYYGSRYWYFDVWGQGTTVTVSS VL: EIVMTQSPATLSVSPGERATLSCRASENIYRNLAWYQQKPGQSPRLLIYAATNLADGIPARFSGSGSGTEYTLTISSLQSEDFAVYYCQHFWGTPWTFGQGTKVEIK
5.6

Attribution: patent US10428140B2
